Entry source: ChEMBL document CHEMBL1138002

System: A549
assay_comment: Inhibition of human lung cancer cell line (A549) growth by 50% in sulforhodamine-B assay
Format: functional
metric: GI50 (µM)

Solved entries (count: 8):
molecule: O=C1NC(=O)/C(=C/c2cc(Cl)ccc2OCc2ccccc2)S1
metric: GI50
numeric_readout: 5

molecule: O=C1NC(=O)/C(=C/c2cc(F)ccc2OCc2ccccc2)S1
metric: GI50
numeric_readout: 4

molecule: COc1ccc(OCc2ccccc2)c(/C=C2\SC(=S)NC2=O)c1
metric: GI50
numeric_readout: 7

molecule: COc1ccc(OCc2ccccc2)c(/C=C2\SC(=O)NC2=O)c1
metric: GI50
numeric_readout: 14

molecule: Cc1ccc(OCc2ccccc2)c(/C=C2\SC(=S)NC2=O)c1
metric: GI50
numeric_readout: 6

molecule: O=C1NC(=S)S/C1=C\c1cc([N+](=O)[O-])ccc1OCc1ccccc1
metric: GI50
numeric_readout: 5

molecule: O=C1NC(=S)S/C1=C\c1cc(Cl)ccc1OCc1ccccc1
metric: GI50
numeric_readout: 5

molecule: CC(C)(C)c1ccc(OCc2ccccc2)c(/C=C2\SC(=O)NC2=O)c1
metric: GI50
numeric_readout: 2

a = O=C1NC(=O)/C(=C/c2ccccc2OCc2ccccc2)S1
b = CC(C)(C)c1ccc(-c2ccc(OCc3ccccc3)c(/C=C3\SC(=S)NC3=O)c2)cc1
Lower value for measured GI50? Options: a , b API: response body contains the label of the selected item.
b

1 = O=C1NC(=O)/C(=C/c2cc([N+](=O)[O-])ccc2OCc2ccccc2)S1
2 = O=C1NC(=S)S/C1=C\c1cc(N2CCOCC2)ccc1OCc1ccccc1
3 = CC(C)(C)c1ccc(-c2ccc(OCc3ccccc3)c(/C=C3\SC(=O)NC3=O)c2)cc1
4 = Cc1ccc(OCc2ccccc2)c(/C=C2\SC(=O)NC2=O)c1
Falling order of GI50, please. Output spec: labels arranged per the requested ranking.
1, 4, 2, 3
(1: 14 µM, 4: 8 µM, 2: 5 µM, 3: 2 µM)

A = O=C1NC(=O)/C(=C/c2cc(Br)ccc2OCc2ccccc2)S1
B = O=C1NC(=S)S/C1=C\c1ccccc1OCc1ccccc1
Which of the two items, A and B , has the greater recorded GI50? API: response body contains the label of the selected item.
B

a = O=C1NC(=S)S/C1=C\c1cc(-c2ccccc2)ccc1OCc1ccccc1
b = O=C1NC(=S)S/C1=C\c1cc(Br)ccc1OCc1ccccc1
c = O=C1NC(=O)/C(=C/c2cc(-c3ccccc3)ccc2OCc2ccccc2)S1
Falling order of GI50, please. Output spec: labels arranged per the requested ranking.
b, a, c

1 = CC(C)(C)c1ccc(OCc2ccccc2)c(/C=C2\SC(=S)NC2=O)c1
2 = O=C1NC(=S)SC1Cc1cc(Cl)ccc1OCc1ccccc1 (stereo not drawn)
3 = O=C1NC(=S)S/C1=C\c1cc(N2CCCCC2)ccc1OCc1ccccc1
Sort ascending by GI50. Output spec: labels arranged per the requested ranking.
3, 1, 2
